Below, each of the binders is paired with its reported neutralization IC50 value.
Biological target: Env of HIV-1 strain ZM109F.PB4 (HIV-1)
Test: cell-based or functional assay

Solved cases (2 shown):
γ22κ5 (antibody, V domains shown) VH: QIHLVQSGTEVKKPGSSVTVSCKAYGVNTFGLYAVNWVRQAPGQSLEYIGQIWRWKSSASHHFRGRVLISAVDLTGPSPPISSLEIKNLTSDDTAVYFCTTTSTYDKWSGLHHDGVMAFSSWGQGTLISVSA VL: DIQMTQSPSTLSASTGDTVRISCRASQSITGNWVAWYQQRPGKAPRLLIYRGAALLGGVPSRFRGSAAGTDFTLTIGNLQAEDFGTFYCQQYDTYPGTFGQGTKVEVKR :: > 15 µg/mL
γ59κ18 (antibody, V domains shown) VH: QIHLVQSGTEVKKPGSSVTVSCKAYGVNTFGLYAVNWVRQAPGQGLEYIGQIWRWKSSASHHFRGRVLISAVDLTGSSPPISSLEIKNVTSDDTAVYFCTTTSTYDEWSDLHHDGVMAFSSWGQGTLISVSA VL: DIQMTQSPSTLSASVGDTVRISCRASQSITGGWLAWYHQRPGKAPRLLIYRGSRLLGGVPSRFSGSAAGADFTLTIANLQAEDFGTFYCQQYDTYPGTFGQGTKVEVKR :: > 15 µg/mL

Would you mind telling me what neutralization IC50 value was observed for γ52κ61 (antibody, V domains shown) VH: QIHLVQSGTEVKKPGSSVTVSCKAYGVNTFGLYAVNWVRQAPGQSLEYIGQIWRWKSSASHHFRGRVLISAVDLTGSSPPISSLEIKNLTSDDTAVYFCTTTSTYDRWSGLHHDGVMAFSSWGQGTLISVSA VL: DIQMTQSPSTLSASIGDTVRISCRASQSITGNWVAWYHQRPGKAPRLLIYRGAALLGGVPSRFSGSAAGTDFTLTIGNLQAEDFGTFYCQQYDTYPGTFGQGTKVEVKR ?
> 15 µg/mL
